# System: K4 kissing-loop RNA reporter;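 note: bound reporter read as fluorescence of individual clusters on recovered sequencing chips by microscopy, with normalized cluster intensities fitted with a binding model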
# Test details: apparent KD of K4 kissing-loop reporter; higher = weaker reporter binding
# Condition context: Eterna round: R107; input ligand: tryptophan 2.4 mM
Items are presented alongside their recorded apparent KD of K4 kissing-loop reporter.
Measurement kind: apparent KD of K4 kissing-loop reporter (µM)

Chain | Measurement kind | Endpoint value
CUCGUGGGUUUGAGAGGGCUUGUGGGAAGUGAGGAUAUUUAGGGAGAAAGAAGGCACUAUAGAAUAUAGUGAUGUUAUAUAUGGG [SSFMNA.Q] | apparent KD of K4 kissing-loop reporter | 0.256
CGUGCCCAGCCGGAUACCAGUGACCCGCUGGGAACCGCGGGCCCAGAGUGAUGUUCGGGACACCCUUGGCAGCCGCCUGGGCGGU [#2 Same State - Theophylline B Attempt #11 (HarryS)] | apparent KD of K4 kissing-loop reporter | 0.791
UGUCAUUGGUCGGCCGCCACUAGAAGGUCAAAGACCAUAGAGUGAUGUUCUAAGACGAAAGUCACUAGGACCGGGACCGAUGACU [TrypBS 1 #SwitchBubble #K4Middle] | apparent KD of K4 kissing-loop reporter | 0.207
GUUACGCAUGGAAGGAGCGCGAAAAUUUAUAGUGAGUGAUGUUCACAAAUAAGAAUAAUAACGCAGGUAGGUCGCCAUGUGUAAC [Ex Arginine B K4 5] | apparent KD of K4 kissing-loop reporter | 0.0952
CCAUCGCUAUUCGAUACCAGCUACUUAGUGAUGUUAAGUUUUUACCCACUGUAGGUGGGAAGCCCUUGGCAGCGAAUAGUGAUGG [Theophylline B K4 27] | apparent KD of K4 kissing-loop reporter | 0.209
UAAUAAUAAUGAUAAUAAUCAAGUGGUGGACGAGGACCGGUACGGCCGCCACUCGAAAAUGCAGUGAUGUUGUAAUACGGAUAAU [Exclusion - Tryptophan A (Freestyle 2)] | apparent KD of K4 kissing-loop reporter | 0.0943
UUAUAUAUAUUAGAUACCAGUUUAAUGGAAACAAAUUAUGUUAUGAGUGAUGUUCAUGUAAGCCCUUGGCAGCUGGUAUGGGUUU [KL-XTheo-B18] | apparent KD of K4 kissing-loop reporter | 0.207
UCCUGCAAUCUGCCACGAAAGUGGAUGGAUACCAGAGUCGAAAGACUCCCUUGGCAGCCAGUGAUGUUGGAAGCAGGUAAAUAAA | apparent KD of K4 kissing-loop reporter | 0.271
UUAGUCAGAUUAUUAUUAGCCUGCGAGUCUAAGGAUAUCCGAAUUCGGAGAAGGUAGUGAUGUUACUUUGGCAGGCACUGACAUU [AK9 Exc FMN A] | apparent KD of K4 kissing-loop reporter | 0.351
CGAACCUCCAAAGGAUAUCUCGUUUAGUGAUGUUUUGCGUAGUAUCAGGAUAGAAUAUUGAUUCAGAGAGAAGGUUGACGUUGGU [theeternabot_exclusion_KL_FMN_B_14] | apparent KD of K4 kissing-loop reporter | 0.537
GGUUCUCUGUUAGGAUAUAGAUUAGAGUGAUGUUCUAACGGCCCGGGCCCGAAAGGGCCCGGGCCGCUAGAAGGAACGGAGUUGG [#2 Same State - FMN A Attempt #1 (HarryS)] | apparent KD of K4 kissing-loop reporter | 0.444
AUUUUGUUGUCAGGAUAUUAGUAUGGUUUUGGUUUGUUAGUGAUGUUGAUGGUUUGUUUAUGUAUUUAAGAAGGGAUUUAGCGGU [swwsgumullin] | apparent KD of K4 kissing-loop reporter | 0.424
UAAGAUUCUGUCUCAUUGAGACAGAAUCAACGAGGACCGGUACGGCCGCCACUCGGGUCCUAGAGUGAUGUUCUAAUAAUAUAAU [AK1 SS Tryptophan A] | apparent KD of K4 kissing-loop reporter | 0.176
ACCUCACAGUGAUGUUGUGAGCCGAUAGUGAAGGAUAUUGUAAAGUCAAGAAGGUCAUGUCAGUCACAAAACGUUAAGCCUCGCA [theeternabot_exclusion_KL_FMN_A_19] | apparent KD of K4 kissing-loop reporter | 0.194
GCCGUACGCAUGGAUACCAGCACAGGCCGAAGUGAUGUUUCGUGCGUAUAUUUGUGCUACUGCCCUUGGCAGCCAUGCGUACGGC | apparent KD of K4 kissing-loop reporter | 0.0752
UGGAUAUAGUGAUGUUAUAUAGAGAUGGAUACCAGCGAAGAGAAUUGCCCUUGGCAGCCGAAAGAAGUAUCAUUAGAGAAGAAUG [ExTheophyl.Ah] | apparent KD of K4 kissing-loop reporter | 0.186
GGAUUUGAAAGUGAGUGAUGUUCAUGUUGUGAGGAUAUGUAGAGAUAUAGAAGGCACGUUUGUAUUUUUUUUGUGUGAGAUUAAA [Last Minute #1] | apparent KD of K4 kissing-loop reporter | 0.0655
AUUUGUUUAUGUGAUACCAGACUAAGCAGUGAUGUUGCUUUUAUUUUUGAAUUUUAAAUAGUCCCUUGGCAGCACUAUGUAUUUA [JR_SSTheophyB_Sub010] | apparent KD of K4 kissing-loop reporter | 0.0603
AUUAAUUUCAGAGGAUAUCGUUAUUUUUUUAAGUAUAAUCUAUUUUGCAGUGAUGUUGCUAUUAAUCGAGAAGGCUGAUUUAUAA [JR_SSFMNB_Sub020] | apparent KD of K4 kissing-loop reporter | 0.0722
GGAGUCCCGUUAGAUUGUGUAGAUACAAGACGAGGACCGGUACGGCCGCCACUCGCCAUCGUCCAGUGAUGUUGGGCGUCACGGG [theeternabot_sameState_KL_Trp_A_30] | apparent KD of K4 kissing-loop reporter | 0.219
GGGAAGGGACACAAGGAGGAACGAAGGGAAGGAGCGCCGGAGGAGGCAGGUAGGUCGCCCAACCAGUGAUGUUGGAAUUUAAUCC [Default title] | apparent KD of K4 kissing-loop reporter | 0.196
UACUUAUUUUUUAACUUAAAUUUUUCAGAAGGAGCGUGAUCAUUCACAGGUAGGUCGCUGAACUAGUGAUGUUAGUUUUAAUUUU [JR_Nu_ExcArginiA_Sub024] | apparent KD of K4 kissing-loop reporter | 0.0565
GGAUAGGAAAGAGGAUAUGGGCUAGGCAAGAAUAACUUGUCUAGCAAAUCCAUGAGGAGUGAUGUUCCAGAAGGCUUUCCUAUCG [FmnBX 1 A9+U77] | apparent KD of K4 kissing-loop reporter | 0.126

====

Items are presented alongside their recorded apparent KD of MS2 coat protein.
# Test system: MS2 coat protein
# Test details: apparent KD of MS2 coat protein; designed switch direction (-1 OFF switch, 1 ON switch): 1; higher = weaker reporter binding
# Condition context: input ligand: microRNA oligo, concentration not stated
Measurement kind: apparent KD of MS2 coat protein (µM)

Chain | Target or system | Measurement kind | Endpoint value
UUAAUGAUGUUAGGAUAUACAUGAGGAAUCCUCGUAGAAGGAACAUGACAUGAGGAUCACCCAUGUAACGCUCCGUAGAGCGUA [JL SSNG1 1.17] (Eterna round: R96, puzzle: Same State NG 1) | MS2 coat protein | apparent KD of MS2 coat protein | 0.0447
GGUAGGUUACUACCAAACAUGAGGAUCACCCAUGUAAGUGGGAAGGAUAUGGUACCUUUUAGGUACCAGAAGGUCCAUAUAAUU [JL Fiskers NG3ss - 2 mod 6] (Eterna round: R96, puzzle: Same State NG 3) | MS2 coat protein | apparent KD of MS2 coat protein | 2.45

====

# Test system: MS2 coat protein
# Test details: apparent KD of MS2 coat protein; designed switch direction (-1 OFF switch, 1 ON switch): -1; higher = weaker reporter binding
# Condition context: input ligand: FMN 200 uM
Lab note: compare apparent KD of MS2 coat protein against 0.02 µM. Equal or greater, write y. Smaller, write n.

Chain | Group label
ACUCACGCAGGAUAUACAUGAGGAUCACCCAUGUUCGAAGGGCGUGGGCACAAAGUCUGUAGAAGGGCGAAAAU [Zave] (Eterna round: R97, puzzle: Exclusion 3) | n
CGGAUACAUGAGGAUCACCCAUGUGAGGAUAUCGUACGUUCGUCGAUAGACGAUCGUACGAGAAGGCAUGACCG [Mat - Exclusion 1 - Eli Mod - D34] (Eterna round: R97, puzzle: Exclusion 1) | y
CCCACCAGAGGAUAUGCGCAUAGAUCAGACUUUGUUUCUGAACAUGAGGAUCACCCAUGUAGAAGGCUGUAACC [Ex2 #87] (Eterna round: R97, puzzle: Exclusion 2) | y
UAUAAGAUAGGAUAUACAGGCCCGUCUUCAUAUCGAUCCCGACAUGAGGAUCACCCAUGUAGAAGGAUCGUGAG [Mod 21 - Jieux - Exclusion 2] (Eterna round: R97, puzzle: Exclusion 2) | n
AGGUCACAUGAGGAUCACCCAUGUGAGGAUAUAGACUCAAGAGCUUCGGCUCUCAAGUUUAGAAGGCGCUAUGA [EX1 #51] (Eterna round: R97, puzzle: Exclusion 1) | y
